species on record: Rattus norvegicus; assay: DrugMatrix - Regimen: Daily Repeat; format: toxicity, organism-based, Sprague-Dawley; set-up: regimen Daily Repeat, gender Male, age 6-8 weeks; conditions: in vivo, iv, 0 mg/kg, 72 h, tissue Plasma, dose level Control, time 3 day, vehicle 100 % SALINE
Items are presented alongside their recorded CHLORIDE.
Hi! Could you send only the number? It should be in MEQ/L, unit omitted.

Consider the following illustrative entries.
Ask: Could you tell me which CHLORIDE is on file for `CCC1=C[C@@H]2CN(C1)Cc1c([nH]c3ccccc13)[C@@](C(=O)OC)(c1cc3c(cc1OC)N(C)[C@H]1[C@@](O)(C(=O)OC)[C@H](OC(C)=O)[C@]4(CC)C=CCN5CC[C@]31[C@@H]54)C2` ?
Result: 99.67

Ask: CHLORIDE for `CCc1c2c(nc3ccc(OC(=O)N4CCC(N5CCCCC5)CC4)cc13)-c1cc3c(c(=O)n1C2)COC(=O)[C@]3(O)CC` ?
Result: 100.17

Ask: # get_value(readout='CHLORIDE', item= `CC(=O)N[C@@H]1[C@H](Oc2c3cc4cc2Oc2ccc(cc2Cl)[C@@H](O[C@@H]2O[C@@H](CO)[C@@H](O)[C@H](O)[C@@H]2NC(C)=O)[C@@H]2NC(=O)[C@H](NC(=O)[C@@H]4NC(=O)[C@H]4NC(=O)[C@@H](Cc5ccc(c(Cl)c5)O3)NC(=O)[C@H](N)c3ccc(O)c(c3)Oc3cc(O)cc4c3)c3ccc(O)c(c3)-c3c(O[C@H]4O[C@H](CO)[C@@H](O)[C@@H](O)[C@@H]4O)cc(O)cc3[C@@H](C(=O)O)NC2=O)O[C@@H](CO)[C@@H](O)[C@@H]1O` )
Result: 102.4

Alright, here's another compound for you.
Ask: Name the recorded CHLORIDE for `CC[C@]1(O)C[C@@H]2CN(CCc3c([nH]c4ccccc34)[C@@](C(=O)OC)(c3cc4c(cc3OC)N(C)[C@H]3[C@@](O)(C(=O)OC)[C@H](OC(C)=O)[C@]5(CC)C=CCN6CC[C@]43[C@@H]65)C2)C1` .
Result: 102.17
